Data origin, for the record: paper PMC9482650

- subject-of-test: GRID2IP_1, A4D2P6
- Sequence (A4D2P6 1-87): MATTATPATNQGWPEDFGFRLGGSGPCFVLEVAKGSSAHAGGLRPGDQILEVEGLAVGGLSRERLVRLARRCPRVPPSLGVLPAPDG
- experiment-summary: holdup assay
- Set-up: key: below the threshold = too weak to quantify, mostly under pKd 3.1 to 4
- measurement-context: plain residues with an end cap or a label only (N-terminal biotin on a linker: ttds)
metric: pKd

{"columns": ["binder", "value-observed"],
 "data": [
  ["SVWLRKETRV [CYSLTR2, Q9NS75]", "below the threshold"],
  ["QSARYRDTEL [TJP2, Q9UDY2]", 3.59],
  ["IDNDTESTAL [ARHGAP17, Q68EM7]", "below the threshold"],
  ["IYVPEAQTRL [DLGAP4, Q9Y2H0]", "below the threshold"]
]}

Proceeding to the next binder to report its pKd.
## Task Item under review: RSLEEEESQL [GRASP, Q7Z6J2] . Reported pKd?
## Result below the threshold
